Attribute: IC50
# assaySystem: human CYP11B2 (Homo sapiens, UniProt P19099)
# Sequence (P19099 25-503): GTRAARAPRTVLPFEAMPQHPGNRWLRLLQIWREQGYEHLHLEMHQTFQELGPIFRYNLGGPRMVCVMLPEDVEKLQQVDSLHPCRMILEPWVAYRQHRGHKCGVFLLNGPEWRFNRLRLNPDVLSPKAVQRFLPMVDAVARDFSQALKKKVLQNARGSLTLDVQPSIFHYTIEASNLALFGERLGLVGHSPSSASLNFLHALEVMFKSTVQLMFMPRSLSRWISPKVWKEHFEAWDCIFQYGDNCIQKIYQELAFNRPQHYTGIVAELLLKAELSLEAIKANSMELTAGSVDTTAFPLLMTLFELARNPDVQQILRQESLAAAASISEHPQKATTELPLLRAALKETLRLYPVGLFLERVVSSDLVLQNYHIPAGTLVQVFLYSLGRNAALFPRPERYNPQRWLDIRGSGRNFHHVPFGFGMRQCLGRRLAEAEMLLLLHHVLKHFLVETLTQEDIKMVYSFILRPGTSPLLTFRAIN
# test: In vitro activity assay of monoclonal cells overexpressing human CYP11B2
# measurementParameters: G402 cells overexpressing human CYP11B2; 1 µM 11-deoxycorticosterone, 16 hours; aldosterone by LC-MS/MS
measure: IC50 (nM)

| molecule | unitLabel | valueMeasured |
| --- | --- | --- |
| CCC(=O)NC1CCCc2c(-c3cc(F)c4c(c3)OCC(=O)N4C)cncc21 (single isomer, unassigned) | nM | 22.6 |
| Cc1noc(C)c1C(=O)NC1CCCc2c(-c3ccc4c(ccc(=O)n4C)c3)cncc21 (single isomer, unassigned) | nM | 31.8 |
| CCC(=O)NC1CCN(C2CCCc3c(-c4ccc5c(ccc(=O)n5C)c4)cncc32)CC1 (single isomer, unassigned) | nM | 48.7 |
| CCC(=O)NC1CCCc2c(-c3ccc4c(c3)OCC(=O)N4C)cncc21 (single isomer, unassigned) [Compound 011] | nM | 59.7 |
| CCC(=O)NC1CCCc2c(-c3nc4ccc(=O)n(C)c4s3)cncc21 (single isomer, unassigned) | nM | 42.2 |
| CCC(=O)N[C@@H]1CCCc2c(-c3ccc4c(ccc(=O)n4C)c3)cncc21 (single isomer, unassigned) | nM | 12 |

----------
# assaySystem: human CYP11B1 (Homo sapiens)
# Sequence (P15538 25-503): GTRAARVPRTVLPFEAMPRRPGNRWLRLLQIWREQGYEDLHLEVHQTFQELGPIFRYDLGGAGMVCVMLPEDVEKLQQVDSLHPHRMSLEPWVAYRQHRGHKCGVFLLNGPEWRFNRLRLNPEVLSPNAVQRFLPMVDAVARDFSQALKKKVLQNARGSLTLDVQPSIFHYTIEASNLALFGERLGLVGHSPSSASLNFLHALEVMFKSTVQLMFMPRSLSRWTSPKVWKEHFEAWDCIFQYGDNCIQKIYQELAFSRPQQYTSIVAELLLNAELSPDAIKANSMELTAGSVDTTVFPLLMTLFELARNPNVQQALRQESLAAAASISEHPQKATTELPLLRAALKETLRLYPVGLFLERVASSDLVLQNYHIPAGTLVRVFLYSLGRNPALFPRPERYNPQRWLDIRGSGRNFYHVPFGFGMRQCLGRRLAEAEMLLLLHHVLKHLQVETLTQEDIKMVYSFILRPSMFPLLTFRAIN
# test: In vitro activity assay of monoclonal cells overexpressing human CYP11B1
# measurementParameters: G402 cells overexpressing human CYP11B1; 1 µM 11-deoxycortisol, 16 hours; cortisol by LC-MS/MS
pIC50: −log10 of the molar value.
measure: pIC50

| molecule | valueMeasured |
| --- | --- |
| CCC(=O)NC1CCCc2c(-c3ccc4c(c3)OCC(=O)N4C)cncc21 (single isomer, unassigned) [Compound 010] | 5.16 |
| CCC(=O)NC1CCCc2c(-c3cc(F)c4c(c3)OCC(=O)N4C)cncc21 (single isomer, unassigned) [Compound 031] | 5.32 |
| CCC(=O)NC1CCCc2c(-c3nc4ccc(=O)n(C)c4s3)cncc21 (single isomer, unassigned) [Compound 041] | 5.17 |
| CCC(=NOC)NC1CCCc2c(-c3ccc4c(c3)CCC(=O)N4C)cncc21 (single isomer, unassigned) [Compound 005] | 5.85 |
| CCC(=O)NC1CCN(C2CCCc3c(-c4ccc5c(ccc(=O)n5C)c4)cncc32)CC1 (single isomer, unassigned) [Compound 030] | 5.66 |
| CCC(=O)NC1CCOc2c(-c3cc4ccc(=O)n(C)c4s3)cncc21 (single isomer, unassigned) [Compound 045] | 4.46 |
| CCC(=O)NC1CCCc2c(-c3cc4ccc(=O)n(C)c4s3)cncc21 (single isomer, unassigned) [Compound 023] | 5.76 |

Sourced from patent EP4711361A1
